# subject_of_test: human Flt-3 (Homo sapiens, UniProt P36888)
# Construct: fused to the N-terminus of the intracellular domain (583-953 amino acids) thereof; made in house; host or cells: insect cells (baculovirus)
# assay_explanation: Inhibitory activity on Flt-3 (GST-fused kinase, time-resolved fluoroimmunoassay)
# Type: biochemical
# assay_setup: tested compound 10 μmol/L, ATP 10 μmol/L, sixty minutes
Measured inhibition at 10 µM accompanies every entry in the list below.
Kindly answer with a numeric value in %, unit omitted.

Entry under test: CC(=O)N1CCN(c2ccc(/C=C/c3n[nH]c4ccccc34)cc2)CC1 . Its inhibition at 10 µM was 94

###

# Test system: MV-4-11
# assay_explanation: Cytostatic activity on human acute myeloid leukemia cell line MV-4-11 (WST-1)
# Format: cell-based
# assay_setup: MV4-11, 3.16 μmol/L, 72 hours, read-out: MV-4-11 (%) cytostatic rate
quantity_name: inhibition at 3.16 µM
Number plus unit, in that order.

Consider the reported inhibition at 3.16 µM for these compounds:
OCCOc1ccc(/C=C/c2n[nH]c3ccccc23)cc1; 91%
Nc1cc(/C=C/c2n[nH]c3ccccc23)ccc1N1CCNCC1; 98%
CCOC(=O)COc1ccc(/C=C/c2n[nH]c3ccccc23)cc1; 37%

Could you now consider this next compound?
Entry under test: CC(=O)N1CCN(c2ccc(/C=C/c3n[nH]c4ccccc34)cc2N)CC1 . Its inhibition at 3.16 µM was 97%

###

# Test system: K562
# assay_explanation: Cytostatic activity on human chronic myeloid leukemia cell line K562 (WST-1)
# Format: cell-based
# assay_setup: 10 μmol/L, 72 hours, read-out: K562 (%) cytostatic rate
Structures can show the parent of a compound that is named as a salt.
quantity_name: inhibition at 10 µM (%)
Kindly answer with a numeric value in %, unit omitted.

Consider the reported inhibition at 10 µM for these compounds:
CC(=O)N1CCN(c2ccc(/C=C/c3n[nH]c4ccccc34)cc2N)CC1 [Compound 58]; 61
COc1cc(/C=C/c2n[nH]c3ccccc23)ccc1OCC(=O)N1CCOCC1 [Compound 40]; 60
CC(=O)N1CCN(c2ccc(/C=C/c3n[nH]c4ccccc34)cc2)CC1 [Compound 54]; 59

Could you now consider this next compound?
Entry under test: CN(C)CCOc1cccc(/C=C/c2n[nH]c3ccccc23)c1 [Compound 18, hydrochloride] . Its inhibition at 10 µM was 59

###

Measured inhibition at 10 µM accompanies every entry in the list below.
# subject_of_test: human Flt-3 (Homo sapiens, UniProt P36888)
# Construct: fused to the N-terminus of the intracellular domain (583-953 amino acids) thereof; made in house; host or cells: insect cells (baculovirus)
# Sequence (P36888 583-953): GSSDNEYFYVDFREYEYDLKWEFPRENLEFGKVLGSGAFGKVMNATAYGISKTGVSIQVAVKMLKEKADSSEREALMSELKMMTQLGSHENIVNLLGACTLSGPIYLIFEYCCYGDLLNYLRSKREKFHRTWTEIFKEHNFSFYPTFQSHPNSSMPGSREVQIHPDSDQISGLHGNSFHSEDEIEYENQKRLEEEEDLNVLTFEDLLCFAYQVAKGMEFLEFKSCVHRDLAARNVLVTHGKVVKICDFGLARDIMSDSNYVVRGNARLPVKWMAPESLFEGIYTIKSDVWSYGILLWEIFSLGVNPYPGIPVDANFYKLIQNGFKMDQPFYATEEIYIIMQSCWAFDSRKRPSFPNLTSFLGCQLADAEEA
# assay_explanation: Inhibitory activity on Flt-3 (GST-fused kinase, time-resolved fluoroimmunoassay)
# Assay type: biochemical
# assay_setup: tested compound 10 μmol/L, ATP 10 μmol/L, sixty minutes
Kindly answer with a numeric value in %, unit omitted.

CCOC(=O)N1CCN(C(=O)c2ccc(/C=C/c3n[nH]c4ccccc34)cc2)CC1; 95.7

Could you now consider this next compound?
Entry under test: CCN(CC)CCNC(=O)c1ccc(/C=C/c2n[nH]c3ccccc23)cc1 . Its inhibition at 10 µM was 94.4
